Listing of entries alongside the reported % of Baclofen Released.
- assay conditions: human, s9, 1 h, 5 µM
measure name: % of Baclofen Released (%)

>  <compound>
CCC[C@H](OC(=O)NC[C@H](CC(=O)[O-])c1ccc(Cl)cc1)OC(=O)C(C)C.[Na+]

>  <measure name>
% of Baclofen Released

>  <measured result>
107

$$$$
>  <compound>
O=C([O-])C[C@@H](CNC(=O)OCOC(=O)c1cccs1)c1ccc(Cl)cc1.[Na+]

>  <measure name>
% of Baclofen Released

>  <measured result>
104

$$$$
>  <compound>
CC(C)C(=O)OC(OC(=O)NC[C@H](CC(=O)[O-])c1ccc(Cl)cc1)C(C)C.[Na+] (stereo partly drawn)

>  <measure name>
% of Baclofen Released

>  <measured result>
95

$$$$
>  <compound>
CC(C)C(=O)O[C@H](C)OC(=O)NC[C@H](CC(=O)[O-])c1ccc(Cl)cc1.[Na+]

>  <measure name>
% of Baclofen Released

>  <measured result>
100

$$$$
>  <compound>
CCCC(=O)OC(OC(=O)NC[C@H](CC(=O)[O-])c1ccc(Cl)cc1)C1CCCCC1.[Na+] (stereo partly drawn)

>  <measure name>
% of Baclofen Released

>  <measured result>
82

$$$$
>  <compound>
O=C([O-])C[C@@H](CNC(=O)OCOC(=O)c1ccccc1)c1ccc(Cl)cc1.[Na+]

>  <measure name>
% of Baclofen Released

>  <measured result>
100

$$$$

Where do these numbers come from? They come from patent EP1660440B1.
